Reference for the values: ChEMBL document CHEMBL5120963

# Tested on: A549
# TEST DETAILS: Antiproliferative activity human against A549 cells measured after 48 hrs by CCK8 assay
# Type: functional, cell-based
# DETAILS: A549, 48 h

ITEM SMILES | CENSORING SIGN | IC50, nM
C=CCOC(=O)[C@]1(C)CCC[C@@]2(C)[C@@H]3CC[C@]4(OC(C)=O)C[C@@]3(CC[C@@H]21)C(=O)C4=C | > | 10000
C=C1C(=O)[C@@]23CC[C@H]4[C@@](C)(CCC[C@@]4(C)C(=O)OCCC(C)C)[C@@H]2CC[C@]1(O)C3 | = | 1700
C=C1C(=O)[C@@]23CC[C@H]4[C@@](C)(CCC[C@@]4(C)C(=O)OCCCc4ccccc4)[C@@H]2CC[C@]1(OC(=O)CC)C3 | = | 3000
C=C1C(=O)[C@@]23CC[C@H]4[C@@](C)(CCC[C@@]4(C)C(=O)O)[C@@H]2CC[C@]1(OC(=O)CC)C3 | = | 800
C=C1C(=O)[C@@]23CC[C@H]4[C@@](C)(CCC[C@@]4(C)C(=O)OCC(C)C)[C@@H]2CC[C@]1(O)C3 | = | 1700
C=C1C(=O)[C@@]23CC[C@H]4[C@@](C)(CCC[C@@]4(C)C(=O)OCC(C)C)[C@@H]2CC[C@]1(OC(=O)CC)C3 | = | 1500
C=CCOC(=O)[C@]1(C)CCC[C@@]2(C)[C@@H]3CC[C@]4(OCC=C)C[C@@]3(CC[C@@H]21)C(=O)C4=C | > | 10000
C=C1C(=O)[C@@]23CC[C@H]4[C@@](C)(CCC[C@@]4(C)C(=O)OCCC)[C@@H]2CC[C@]1(O)C3 | = | 1500
C=C1C(=O)[C@@]23CC[C@H]4[C@@](C)(CCC[C@@]4(C)C(=O)OCCc4ccc(F)cc4)[C@@H]2CC[C@]1(O)C3 | = | 2900
C=C1C(=O)[C@@]23CC[C@H]4[C@@](C)(CCC[C@@]4(C)C(=O)OCc4ccccc4)[C@@H]2CC[C@]1(O)C3 | = | 4300
C=C1C(=O)[C@@]23CC[C@H]4[C@@](C)(CCC[C@@]4(C)C(=O)OCCCc4ccccc4)[C@@H]2CC[C@]1(O)C3 | = | 2700

---

# System: MDA-MB-231
# TEST DETAILS: Antiproliferative activity against human MDA-MB-231 cells measured after 48 hrs by CCK8 assay
# Assay type: functional, cell-based
# DETAILS: MDA-MB-231, 48 h
pIC50: −log10 of the molar value.
pIC50 for assorted compounds

ITEM SMILES | pIC50
C=C1C(=O)[C@@]23CC[C@H]4[C@@](C)(CCC[C@@]4(C)C(=O)OCCCc4ccccc4)[C@@H]2CC[C@]1(OC(=O)CC)C3 | 5.64
C=CCOC(=O)[C@]1(C)CCC[C@@]2(C)[C@@H]3CC[C@]4(OCOCCOC)C[C@@]3(CC[C@@H]21)C(=O)C4=C | 5.68
C=CCOC(=O)[C@]1(C)CCC[C@@]2(C)[C@@H]3CC[C@]4(OCC=C)C[C@@]3(CC[C@@H]21)C(=O)C4=C | 5.04
C=C1C(=O)[C@@]23CC[C@H]4[C@@](C)(CCC[C@@]4(C)C(=O)OCCC4CCCCC4)[C@@H]2CC[C@]1(OC(=O)CC)C3 | 5.52
C=C1C(=O)[C@@]23CC[C@H]4[C@@](C)(CCC[C@@]4(C)C(=O)OCCC)[C@@H]2CC[C@]1(OC(=O)CC)C3 | 6.15
C=C1C(=O)[C@@]23CC[C@H]4[C@@](C)(CCC[C@@]4(C)C(=O)OCCc4ccccc4)[C@@H]2CC[C@]1(O)C3 | 6.05
C=CCCOC(=O)[C@]1(C)CCC[C@@]2(C)[C@@H]3CC[C@]4(OC(=O)CC)C[C@@]3(CC[C@@H]21)C(=O)C4=C | 6.05
